- test.system: Human Calpain 2/NS1 (Homo sapiens, UniProt P17655)
- Sequence (P17655 whole entry): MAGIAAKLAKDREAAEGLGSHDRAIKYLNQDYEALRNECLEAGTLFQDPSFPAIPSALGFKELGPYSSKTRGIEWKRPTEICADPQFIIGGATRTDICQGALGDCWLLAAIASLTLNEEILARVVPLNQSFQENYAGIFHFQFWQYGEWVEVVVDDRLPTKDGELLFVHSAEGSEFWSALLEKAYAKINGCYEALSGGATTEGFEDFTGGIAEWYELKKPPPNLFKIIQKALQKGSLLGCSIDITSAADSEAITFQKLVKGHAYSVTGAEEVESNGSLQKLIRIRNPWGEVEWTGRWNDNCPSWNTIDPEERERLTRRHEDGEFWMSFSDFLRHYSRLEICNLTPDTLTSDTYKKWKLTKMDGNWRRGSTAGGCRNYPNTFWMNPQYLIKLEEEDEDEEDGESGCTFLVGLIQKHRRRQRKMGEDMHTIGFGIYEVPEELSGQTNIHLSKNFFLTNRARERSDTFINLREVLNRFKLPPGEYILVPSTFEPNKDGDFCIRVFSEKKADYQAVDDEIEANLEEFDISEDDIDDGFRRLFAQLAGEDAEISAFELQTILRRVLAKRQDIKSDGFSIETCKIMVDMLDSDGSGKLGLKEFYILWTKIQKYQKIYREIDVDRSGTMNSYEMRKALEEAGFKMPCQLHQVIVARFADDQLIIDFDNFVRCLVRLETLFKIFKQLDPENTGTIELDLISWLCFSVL
- Sequence (P04632 whole entry partner): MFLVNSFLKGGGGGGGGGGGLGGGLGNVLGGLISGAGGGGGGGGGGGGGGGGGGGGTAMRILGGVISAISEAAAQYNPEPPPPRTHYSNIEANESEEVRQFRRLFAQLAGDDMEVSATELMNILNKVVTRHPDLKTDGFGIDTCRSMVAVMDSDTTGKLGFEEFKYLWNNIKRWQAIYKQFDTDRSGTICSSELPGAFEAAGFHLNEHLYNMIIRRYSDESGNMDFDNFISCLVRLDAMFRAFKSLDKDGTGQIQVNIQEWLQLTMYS
- procedure.summary: Calpain inhibition continuous fluorescence (FRET) assay, Human Calpain 2/NS1
- Assay type: biochemical
- study.conditions: read-out: Human Calpain 2/NS1 IC50
pIC50: −log10 of the molar value.
Overview of reported pIC50 across a group of molecules:

Recorded results for 5 molecules are shown here.
# molecule, pIC50
measured = [
    ("Cn1cc(C(=O)N[C@H](C=O)Cc2ccccc2)c(-c2ccccc2)n1", "> 5.52"),
    ("NC(=O)C(=O)C(Cc1ccccc1)NC(=O)c1oc(C2CC2)nc1-c1ccccc1 (stereo not drawn)", "> 5.52"),
    ("NC(=O)C(=O)C(Cc1ccccc1)NC(=O)c1cn(-c2ccccc2F)nc1-c1ccccc1 (stereo not drawn)", "> 5.52"),
    ("Cc1cccnc1-n1nc(C(=O)NC(Cc2ccccc2)C(=O)C(N)=O)cc1C (stereo not drawn)", "5.00 to 5.52"),
    ("Cn1cc(C(=O)NC(Cc2ccccc2)C(=O)C(N)=O)c(-c2cccc3c2OC(F)(F)O3)n1 (stereo not drawn)", "> 5.52"),
]

Name the reported pIC50 value associated with the molecule Cc1ccc(-c2nn(C)cc2C(=O)NC(Cc2ccccc2)C(=O)C(N)=O)o1 (stereo not drawn)
> 5.52

Thanks! And NC(=O)C(=O)C(Cc1ccccc1)NC(=O)c1nsnc1-c1ccncc1 (stereo not drawn) ?
> 5.52

Thanks! And CCCCC(NC(=O)c1oc(C)nc1-c1ccccc1)C(=O)C(=O)NC1CC1 (stereo not drawn) ?
> 5.52

----------
Overview of reported pIC50 across a group of compounds:
- test.system: Human Calpain 2/NS1 (Homo sapiens, UniProt P17655)
- procedure.summary: Calpain inhibition continuous fluorescence (FRET) assay, Human Calpain 2/NS1
- Format: biochemical
- study.conditions: read-out: Human Calpain 2/NS1 IC50
pIC50: −log10 of the molar value. Counter-ions that a name gives are not always drawn.

Recorded results for 2 compounds are shown here.
# compound, pIC50
data = [
    ("Cc1cc(C(=O)NC(Cc2ccccc2)C(=O)C(N)=O)n(-c2ccc(Oc3ccccc3)cc2)n1 (centres unmarked)", "> 5.52"),
    ("NC(=O)C(=O)C(Cc1ccccc1)NC(=O)c1cn(C2CC2)nc1-c1ccccc1 (centres unmarked)", "> 5.52"),
]

Name the reported pIC50 value associated with the compound Cc1cc(C(=O)NC(Cc2ccccc2)C(=O)C(=O)NC2CC2)n(-c2ccccn2)n1 (centres unmarked)
> 5.52

Thanks! And NC(=O)C(=O)C(Cc1ccccc1)NC(=O)c1nsnc1-c1cccc2c1OC(F)(F)O2 (centres unmarked) ?
> 5.52

Thanks! And CCN(CC)Cc1ccc(Oc2ccc(-n3nc(C)cc3C(=O)NC(Cc3ccccc3)C(=O)C(N)=O)cc2)cc1 (centres unmarked) [Compound 441, hydrochloride] ?
< 5.00

Thanks! And Cn1cc(C(=O)N[C@H](C(=O)C(N)=O)C2Cc3ccccc3C2)c(-c2ccccc2F)n1 ?
> 5.52

Thanks! And Cn1cc(C(=O)NC(Cc2ccccc2)C(=O)C(N)=O)c(Cn2ncc3cnccc32)n1 (centres unmarked) ?
5.00 to 5.52

Thanks! And Cn1cc(C(=O)NC(Cc2ccccc2)C(=O)C(N)=O)c(-c2ccccc2Cl)n1 (centres unmarked) ?
> 5.52

----------
- test.system: Human Calpain 9/NS1 (Homo sapiens, UniProt O14815)
- Sequence (O14815 whole entry): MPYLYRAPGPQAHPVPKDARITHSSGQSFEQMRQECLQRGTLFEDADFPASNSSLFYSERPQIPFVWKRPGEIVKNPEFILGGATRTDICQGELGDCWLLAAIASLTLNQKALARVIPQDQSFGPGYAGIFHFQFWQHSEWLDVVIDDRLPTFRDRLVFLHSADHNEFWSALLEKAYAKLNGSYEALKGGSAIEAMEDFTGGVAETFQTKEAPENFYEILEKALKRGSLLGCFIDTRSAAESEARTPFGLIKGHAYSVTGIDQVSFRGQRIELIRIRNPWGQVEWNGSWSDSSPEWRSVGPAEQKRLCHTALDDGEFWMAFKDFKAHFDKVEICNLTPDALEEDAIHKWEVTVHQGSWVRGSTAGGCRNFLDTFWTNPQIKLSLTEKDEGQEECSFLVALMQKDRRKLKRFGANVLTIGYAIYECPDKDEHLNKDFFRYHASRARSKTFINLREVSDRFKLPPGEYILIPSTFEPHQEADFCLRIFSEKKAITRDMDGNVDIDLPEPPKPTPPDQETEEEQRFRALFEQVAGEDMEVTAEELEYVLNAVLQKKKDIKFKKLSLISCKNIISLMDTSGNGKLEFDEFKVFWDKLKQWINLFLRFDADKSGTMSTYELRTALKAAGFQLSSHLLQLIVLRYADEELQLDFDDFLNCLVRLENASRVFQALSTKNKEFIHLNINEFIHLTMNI
- Sequence (P04632 whole entry partner): as the sequence (P04632 whole entry partner) above
- procedure.summary: Calpain inhibition continuous fluorescence (FRET) assay, Human Calpain 9/NS1
- Type: biochemical
- study.conditions: Column C; read-out: Human Calpain 9/NS1 IC50
property.name: IC50

Name the reported IC50 value associated with the compound Cc1cc(C(=O)N[C@@H](Cc2ccccc2)C(=O)C(N)=O)n(-c2ccc(-c3ccccc3)nn2)n1
3 to 10 µM

----------
- test.system: Human Calpain 9/NS1 (Homo sapiens)
- procedure.summary: Calpain inhibition continuous fluorescence (FRET) assay, Human Calpain 9/NS1
- Type: biochemical
- study.conditions: read-out: Human Calpain 9/NS1 IC50
Overview of reported IC50 across a group of molecules:

Recorded results for 3 molecules are shown here.
# molecule, test.system, property.name, readout.value
records = [
    ("CC(C)n1cc(C(=O)NC(Cc2ccccc2)C(=O)C(N)=O)c(-c2ccccc2F)n1 (stereo not shown)", "Human Calpain 9/NS1 (Homo sapiens)", "IC50", "< 3 µM"),
    ("COc1ccc(F)c(-c2nn(C)cc2C(=O)NC(Cc2ccccc2)C(=O)C(N)=O)c1 (stereo not shown)", "Human Calpain 9/NS1 (Homo sapiens)", "IC50", "< 3 µM"),
    ("CCCCC(NC(=O)c1oc(C)nc1-c1ccccc1)C(=O)C(=O)NC1CC1 (stereo not shown)", "Human Calpain 9/NS1 (Homo sapiens)", "IC50", "< 3 µM"),
]

Name the reported IC50 value associated with the molecule Cc1nc(-c2ccccc2)c(C(=O)N[C@@H](Cc2ccccc2)C(=O)CF)o1
3 to 10 µM

----------
- test.system: Human Calpain 1/NS1 (Homo sapiens, UniProt P07384)
- Sequence (P07384 whole entry, one chain of several): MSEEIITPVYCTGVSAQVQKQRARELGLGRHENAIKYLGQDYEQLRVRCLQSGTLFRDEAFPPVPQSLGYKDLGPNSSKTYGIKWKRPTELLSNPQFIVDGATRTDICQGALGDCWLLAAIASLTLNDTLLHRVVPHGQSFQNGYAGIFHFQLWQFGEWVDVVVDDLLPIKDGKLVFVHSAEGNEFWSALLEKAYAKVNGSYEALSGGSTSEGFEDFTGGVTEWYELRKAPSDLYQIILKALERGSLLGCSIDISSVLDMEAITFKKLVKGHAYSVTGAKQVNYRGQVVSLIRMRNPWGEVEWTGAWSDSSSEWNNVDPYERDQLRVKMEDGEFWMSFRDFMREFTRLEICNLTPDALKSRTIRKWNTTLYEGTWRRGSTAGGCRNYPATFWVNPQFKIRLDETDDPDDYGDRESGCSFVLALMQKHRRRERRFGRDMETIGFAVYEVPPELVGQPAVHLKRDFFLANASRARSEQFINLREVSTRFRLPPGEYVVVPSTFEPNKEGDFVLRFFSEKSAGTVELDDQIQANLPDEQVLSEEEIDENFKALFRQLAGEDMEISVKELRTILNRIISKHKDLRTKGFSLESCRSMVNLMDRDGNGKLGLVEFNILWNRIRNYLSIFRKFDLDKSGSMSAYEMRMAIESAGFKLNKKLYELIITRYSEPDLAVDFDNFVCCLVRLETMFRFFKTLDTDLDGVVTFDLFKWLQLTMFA
- procedure.summary: Calpain inhibition continuous fluorescence (FRET) assay, Human Calpain 1/NS1
- Assay type: biochemical
- study.conditions: read-out: Human Calpain 1/NS1 IC50
property.name: IC50

Recorded results for 2 compounds are shown here.
# compound, IC50
data = [
    ("COc1cccc(-c2nn(C)cc2C(=O)NC(Cc2ccccc2)C(=O)C(N)=O)n1 (centres unmarked) [Compound 487]", "3 to 10 µM"),
    ("COc1cccc(-c2oncc2C(=O)NC(Cc2ccccc2)C(=O)C(N)=O)c1F (centres unmarked) [Compound 595]", "< 3 µM"),
]

Name the reported IC50 value associated with the compound Cc1cccc(-c2oncc2C(=O)NC(Cc2ccccc2)C(=O)C(N)=O)c1F (centres unmarked) [Compound 584]
< 3 µM

Thanks! And Cc1cnc(C(=O)NC(Cc2ccccc2)C(=O)C(N)=O)n1-c1ccccc1 (centres unmarked) [Compound 490] ?
> 10 µM

Thanks! And NC(=O)C(=O)C(Cc1ccccc1)NC(=O)c1cn(C(F)F)nc1-c1cccc2ncccc12 (centres unmarked) [Compound 576] ?
< 3 µM

----------
Overview of reported IC50 across a group of compounds:
- test.system: Human Calpain 1/NS1 (Homo sapiens)
- procedure.summary: Calpain inhibition continuous fluorescence (FRET) assay, Human Calpain 1/NS1
- Type: biochemical
- study.conditions: read-out: Human Calpain 1/NS1 IC50

Recorded results for 7 compounds are shown here.
# compound, readout.value
records = [
    ("NC(=O)C(=O)C(Cc1ccc(F)cc1)NC(=O)c1nsnc1-c1ccccc1 (centres unmarked) [Compound 464]", "< 3 µM"),
    ("Cn1cc(C(=O)NC(Cc2ccccc2)C(=O)C(N)=O)c(-c2cccc3ncccc23)n1 (centres unmarked) [Compound 597]", "< 3 µM"),
    ("NC(=O)C(=O)C(Cc1ccccc1)NC(=O)c1cnoc1-c1ccccc1 (centres unmarked) [Compound 531]", "< 3 µM"),
    ("Cn1cc(C(=O)NC(Cc2ccccc2)C(=O)C(N)=O)c(N2CCN(C(=O)OC(C)(C)C)CC2)n1 (centres unmarked) [Compound 603]", "3 to 10 µM"),
    ("Cc1cccnc1-n1nc(C(=O)NC(Cc2ccccc2)C(=O)C(N)=O)cc1C (centres unmarked) [Compound 346]", "> 10 µM"),
    ("N#Cc1ccc(-c2nn(C3CC3)cc2C(=O)NC(Cc2ccccc2)C(=O)C(N)=O)cn1 (centres unmarked) [Compound 413]", "< 3 µM"),
    ("Cc1cc(C)cc(-c2nn(C(F)F)cc2C(=O)NC(Cc2ccccc2)C(=O)C(N)=O)c1 (centres unmarked) [Compound 565]", "< 3 µM"),
]

Moving on to another compound below.
Name the reported IC50 value associated with the compound CC[C@H](NC(=O)c1cn(C)nc1-c1ccccc1)C(=O)C(N)=O [Compound 332]
< 3 µM

----------
- test.system: Human Calpain 1/NS1 (Homo sapiens, UniProt P07384)
- procedure.summary: Calpain inhibition continuous fluorescence (FRET) assay, Human Calpain 1/NS1
- Assay type: biochemical
- study.conditions: Column A; read-out: Human Calpain 1/NS1 IC50
Overview of reported IC50 across a group of molecules:

Recorded results for 4 molecules are shown here.
# chemical.structure, IC50
measured = [
    ("Cc1cc(C(=O)N[C@@H](Cc2ccccc2)C(=O)C(=O)NC2CC2)n(-c2ncccn2)n1", "> 10 µM"),
    ("Cc1cc(C(=O)N[C@@H](Cc2ccccc2)C(=O)C(N)=O)n(-c2nc3ccccc3n2C)n1", "3 to 10 µM"),
    ("NC(=O)C(=O)[C@H](Cc1ccccc1)NC(=O)c1c(F)cnn1-c1ccccc1", "< 3 µM"),
    ("NC(=O)C(=O)[C@H](Cc1ccccc1)NC(=O)c1nonc1-c1ccccc1", "< 3 µM"),
]

Name the reported IC50 value associated with the molecule Cc1noc(-c2ccccc2)c1C(=O)N[C@@H](Cc1ccccc1)C(=O)C(=O)NCc1cccc(OC(F)(F)F)c1
> 10 µM

FYI, the data here is from patent US11339130B1.
